assay: Pharmacokinetics after oral administration to rats with jugular vein and portal vein catheters; type: in vivo, Male Sprague-Dawley rats; details: male, Sprague-Dawley, rat, portal vein plasma, po, 30 mg/kg, 30 mg/kg oral gavage, portal vein plasma, t=10 min to 4 hrs, read-out: Portal AUClast, parent compound
MEASURE: AUC(0-t) (ng·h/mL)

                                   molecule   measure  unit_of_measure  reported_result
0  CC/C=C\C/C=C\C/C=C\C/C=C\C/C=C\C/C=C\CCC(=O)NCCNC(=O)c1cccnc1 [Compound I-7, reference compound]  AUC(0-t)          ng·h/mL             1460

###

Assay: Pharmacokinetics after oral administration to rats with jugular vein and portal vein catheters
Assay type: in vivo, Male Sprague-Dawley rats
Details: male, Sprague-Dawley, rat, in vivo, po, 30 mg/kg
Method: Pharmacokinetic studies were conducted in male Sprague-Dawley rats, with an approximate weight of 250-300 g at dose initiation. All animals were instrumented with a jugular vein catheter (JVC) and a portal vein catheter (PVC) to facilitate blood collections. […] The amount of the various metabolites and parent compound present in the plasma samples were then analyzed by LC/MS/MS using an Agilent 6410 Triple Quadrupole with an ESI interface. […] Data was further analyzed by WinNolin Software. […]
Each entry below carries its recorded ratio of Portal AUClast of Parent compound to Portal AUClast of Niacin-linker metabolite.
MEASURE: ratio of Portal AUClast of Parent compound to Portal AUClast of Niacin-linker metabolite

                                   compound  reported_result
0  CC/C=C\C/C=C\C/C=C\C/C=C\C/C=C\CCCC(=O)N[C@H]1CCN(C(=O)c2cccnc2)C1 [Compound I-23]             0.17
1  CC/C=C\C/C=C\C/C=C\C/C=C\C/C=C\CCCC(=O)N1CCN(C(=O)c2cccnc2)CC1 [Compound I-13]             0.83
2  CC/C=C\C/C=C\C/C=C\C/C=C\C/C=C\CCCC(=O)NCCNC(=O)c1cccnc1 [Compound I-8, reference compound]             0.06
3  CC/C=C\C/C=C\C/C=C\C/C=C\C/C=C\CCCC(=O)N1CC[C@H](NC(=O)c2cccnc2)C1 [Compound I-24]               41

###

Assay: Pharmacokinetics after oral administration to rats with jugular vein and portal vein catheters
Assay type: in vivo, Male Sprague-Dawley rats
Settings: male, Sprague-Dawley, rat, jugular vein plasma, po, 30 mg/kg, 30 mg/kg oral gavage, jugular vein plasma, read-out: Peripheral Cmax, parent compound
Method: Pharmacokinetic studies were conducted in male Sprague-Dawley rats, with an approximate weight of 250-300 g at dose initiation. All animals were instrumented with a jugular vein catheter (JVC) and a portal vein catheter (PVC) to facilitate blood collections. […] The amount of the various metabolites and parent compound present in the plasma samples were then analyzed by LC/MS/MS using an Agilent 6410 Triple Quadrupole with an ESI interface. […] Data was further analyzed by WinNolin Software. […]
MEASURE: Cmax (ng/mL)

>>> df
                                   compound  measure  reported_result
0  CC/C=C\C/C=C\C/C=C\C/C=C\C/C=C\C/C=C\CCC(=O)NCCNC(=O)c1cccnc1 [Compound I-7, reference compound]     Cmax              238

###

test: Pharmacokinetics after oral administration to rats with jugular vein and portal vein catheters; assay type: in vivo, Male Sprague-Dawley rats; conditions: male, Sprague-Dawley, rat, in vivo, po, 30 mg/kg, Peripheral Cmax, parent compound
Use fulfilled when the recorded Cmax is no lower than 80 ng/mL; use not fulfilled when it is lower.

>>> print(df.to_string())
                                   molecule  qualitative_label
0  CC/C=C\C/C=C\C/C=C\C/C=C\C/C=C\CCCC(=O)N[C@H]1CCN(C(=O)c2cccnc2)C1 [Compound I-23]      not fulfilled
1  CC/C=C\C/C=C\C/C=C\C/C=C\C/C=C\CCCC(=O)N(C)CCNC(=O)c1cccnc1 [Compound I-15]          fulfilled
2  CC/C=C\C/C=C\C/C=C\C/C=C\C/C=C\CCCC(=O)N1CC[C@H](NC(=O)c2cccnc2)C1 [Compound I-24]          fulfilled

###

experiment: Pharmacokinetics after oral administration to rats with jugular vein and portal vein catheters; format: in vivo, Male Sprague-Dawley rats; settings: male, Sprague-Dawley, rat, in vivo, po, 30 mg/kg, Peripheral AUClast, parent compound
Use 1 when the recorded AUC(0-t) is no lower than 80 ng·h/mL; use -1 when it is lower.

In [3]: df
Out[3]:
                                   compound  qualitative_label
0  CC/C=C\C/C=C\C/C=C\C/C=C\C/C=C\CCCC(=O)N[C@H]1CCN(C(=O)c2cccnc2)C1 [Compound I-23]                 -1
1  CC/C=C\C/C=C\C/C=C\C/C=C\C/C=C\CCCC(=O)N1CC[C@H](NC(=O)c2cccnc2)C1 [Compound I-24]                  1
2  CC/C=C\C/C=C\C/C=C\C/C=C\C/C=C\CCCC(=O)N1CCN(C(=O)c2cccnc2)CC1 [Compound I-13]                  1
3  CC/C=C\C/C=C\C/C=C\C/C=C\C/C=C\CCCC(=O)N(C)CCNC(=O)c1cccnc1 [Compound I-15]                  1

###

Each entry below carries its recorded concentration at 4 h.
Test: Compound hydrolysis and tissue distribution: test compound and metabolites in liver after oral dosing for 3.5 days
Type: in vivo, Male Sprague-Dawley rats
Conditions: male, Sprague-Dawley, liver homogenate; rat liver, 100 mg/kg oral gavage every 12 hours, 7 doses, 4 hours after last dose; read-out: Amount of Analyte: Intact Test Compound
Description: The amount of test compound and its metabolites in the liver provides information on distribution of such compounds within the rat, as well as information on stability of the test compound, such as resistance of the test compound to hydrolytic degradation. […] A test compound was administered to a single group of Male Sprague-Dawley rats. Each group contained 6 animals. […] At 4 hours after last dose, the livers were excised, rinsed and weight of each tissue recorded. […]
MEASURE: concentration at 4 h (ng/g)

>>> print(df.to_string())
                                   compound  unit_of_measure  reported_result
0  CC/C=C\C/C=C\C/C=C\C/C=C\C/C=C\C/C=C\CCC(=O)NCCNC(=O)c1cccnc1 [Compound I-7, reference compound]             ng/g              6.7
1  CC/C=C\C/C=C\C/C=C\C/C=C\C/C=C\CCCC(=O)N(C)CCNC(=O)c1cccnc1             ng/g              459

###

assay: Pharmacokinetics after oral administration to rats with jugular vein and portal vein catheters; type: in vivo, Male Sprague-Dawley rats; conditions: male, Sprague-Dawley, rat, jugular vein plasma, po, 30 mg/kg, 30 mg/kg oral gavage, jugular vein plasma, t=10 min to 4 hrs, read-out: Peripheral AUClast, parent compound
MEASURE: AUC(0-t) (ng·h/mL)

>>> print(df.to_string())
                                   compound  unit_of_measure  reported_result
0  CC/C=C\C/C=C\C/C=C\C/C=C\C/C=C\C/C=C\CCC(=O)NCCNC(=O)c1cccnc1 [Compound I-7, reference compound]          ng·h/mL              353
